Test system: GBC-SD (human gallbladder carcinoma cell)
Test: CCK-8 anti-proliferation assay, GBC-SD
Assay type: cell-based
Details: at 20 µM, 48 h, mean ± SEM, read-out: Inhibition Rate (%)
endpoint: inhibition at 20 µM

CC(=O)OC[C@H](C)CCC[C@@H](C)[C@H]1CC[C@H]2[C@@H]3C[C@@H](O)[C@@]4(O)C[C@@H](O)CC[C@]4(C)[C@H]3CC[C@]12C [compound 13]: 6%
CC(=O)OC[C@H](C)CCC[C@@H](C)[C@H]1CC[C@H]2[C@@H]3CC(=O)[C@@]4(O)C[C@@H](O)CC[C@]4(C)[C@H]3CC[C@]12C [compound (25R)-5]: 28.1%
C[C@@H](CO)CCC[C@@H](C)[C@H]1CC[C@H]2[C@@H]3CC=C4C[C@@H](O)CC[C@]4(C)[C@H]3CC[C@]12C [compound 11]: 10.4%
C[C@@H](CO)CCC[C@@H](C)[C@H]1[C@@H](O)C[C@H]2[C@@H]3CC=C4C[C@@H](O)CC[C@]4(C)[C@H]3CC[C@]12C [compound 8]: 26.8%

###

Here the recorded inhibition at 20 µM is given for each entry.
Tested on: SF126 (human glioblastoma cell)
Experiment: CCK-8 anti-proliferation assay, SF126
Format: cell-based
Conditions: SF-126, at 20 µM, 48 h, mean ± SEM, read-out: Inhibition Rate (%)
endpoint: inhibition at 20 µM (%)

CC(=O)OC[C@H](C)CCC[C@@H](C)[C@H]1CC[C@H]2[C@@H]3C[C@@H](O)[C@@]4(O)C[C@@H](O)CC[C@]4(C)[C@H]3CC[C@]12C [compound 13]: 4.7
C[C@@H](CO)CCC[C@@H](C)[C@H]1[C@@H](O)C[C@H]2[C@@H]3CC=C4C[C@@H](O)CC[C@]4(C)[C@H]3CC[C@]12C [compound 8]: 30.7
C[C@@H](CO)CCC[C@@H](C)[C@H]1CC[C@H]2[C@@H]3CC=C4C[C@@H](O)CC[C@]4(C)[C@H]3CC[C@]12C [compound 11]: 11.7
CC(=O)OC[C@H](C)CCC[C@@H](C)[C@H]1CC[C@H]2[C@@H]3CC(=O)[C@@]4(O)C[C@@H](O)CC[C@]4(C)[C@H]3CC[C@]12C [compound (25R)-5]: 28.1

###

System: HeLa (human cervical cancer cell)
Assay: CCK-8 anti-proliferation assay, HeLa
Assay type: cell-based
Settings: at 20 µM, 48 h, mean ± SEM, read-out: Inhibition Rate (%)
endpoint: inhibition at 20 µM (%)

CC(=O)OC[C@H](C)CCC[C@@H](C)[C@H]1CC[C@H]2[C@@H]3CC(=O)[C@@]4(O)C[C@@H](O)CC[C@]4(C)[C@H]3CC[C@]12C [compound (25R)-5]: 22.7
CC(=O)OC[C@H](C)CCC[C@@H](C)[C@H]1CC[C@H]2[C@@H]3C[C@@H](O)[C@@]4(O)C[C@@H](O)CC[C@]4(C)[C@H]3CC[C@]12C: -2.3
C[C@@H](CO)CCC[C@@H](C)[C@H]1CC[C@H]2[C@@H]3CC=C4C[C@@H](O)CC[C@]4(C)[C@H]3CC[C@]12C: 14.9
C[C@@H](CO)CCC[C@@H](C)[C@H]1[C@@H](O)C[C@H]2[C@@H]3CC=C4C[C@@H](O)CC[C@]4(C)[C@H]3CC[C@]12C: 49.7
